test system: MALME-3M melanoma; test: NCI-60 one-dose screen, 48 h (100 = growth as untreated, 0 = no growth, -100 = all killed); details: 10 µM
The panel holds about 83,000 compounds, 20% with a hit somewhere; the sample as a whole holds those more often. Active and inactive are the calls of the source. Rule for the calls: active = growth percent below 10; inactive = the rest.
Please respond with reported growth for every item in the list.

Field: example entries. Status: answers known.
# molecule, growth
rows = [
    ("COc1cc(-c2nn(-c3cccc(NC(=O)CCNc4ccc(N5CCOCC5)cc4)c3)cc2-c2ccncc2)ccc1Cl", "21.9% (inactive)"),
    ("CC(C)[N+]1(C)C2CC[C@@H]1CC(OC(=O)C(CO)c1ccccc1)C2 (stereo partly specified)", "103% (inactive)"),
    ("COc1ccc2c(c1)C(=O)/C(=C/c1cccc(OCC(=O)c3ccc([N+](=O)[O-])cc3)c1)CO2", "30.4% (inactive)"),
]

Go through the items and report each one's growth.
1. O=C(O)COc1c(Cl)cc([N+](=O)[O-])cc1Cl
2. c1ccc(CSc2ncccc2-c2nnc(SCCN3CCOCC3)o2)cc1

[A]
1. 97.1% (inactive)
2. 111% (inactive)

Go through the items and report each one's growth.
1. C[C@@H](O)[C@H]1C(=O)N2C(C(=O)O)=C(SC3CN[C@H](C(=O)N(C)C)C3)[C@H](C)[C@H]12 (stereo partly specified)
2. O=S(=O)(O)c1ccc(Cl)cc1
3. CS(=O)(=O)c1nccc(-c2c(-c3ccc(OCCc4ccccc4)cc3)nc3sccn23)n1
4. NC1=CC(=O)C(=O)c2cccnc21
5. Cc1cccc(N=Cc2ccccc2O)c1C
6. Cc1ccc(N=Nc2ccccc2)cc1
7. CNC(=O)c1cn(C2CC2)c2cc(N3CCN(C(=O)c4cc(OC)c(OC)c(OC)c4)CC3)c(F)cc2c1=O
8. O=C1CSC(=S)N1/N=C/c1ccc(Cl)s1

[A]
["92.9% (inactive)", "98.2% (inactive)", "103% (inactive)", "-0.873% (active)", "91.7% (inactive)", "98.4% (inactive)", "103% (inactive)", "103% (inactive)"]

Go through the items and report each one's growth.
1. CC[C@@H](C(=O)[C@H](C)[C@H](O)[C@@H](C)[C@H]1O[C@H]([C@@H](CC)C(=O)N(CC)CC)CC[C@H]1C)C1O[C@]2(C=C[C@@H](O)[C@]3(CC[C@@](C)([C@H]4CC[C@](O)(CC)[C@H](C)O4)O3)O2)[C@H](C)C[C@@H]1C (stereo partly specified)
2. CCCCCCCCCCCCCCCCCC[n+]1ccc2c(C)c3c(c(C)c2c1)c1cc(O)ccc1n3CC
3. O=C(CCCNC(=O)c1nc(-c2ccccc2)n(-c2ccccc2)n1)NO
4. O=C1c2ccccc2C(=O)c2c1ccc(C(Br)Br)c2Cl

[A]
["-20.1% (active)", "-55.2% (active)", "99.4% (inactive)", "-70.9% (active)"]
